# assay_text: Half life in CD1 mouse at 5 mg/kg, iv
# Type: ADME, organism-based
# Parameters: dose 5 mg/kg, route intravenous
# condition_details: in vivo
measured_metric: half-life (h)
Answers are plain numbers, in h.

Requested field: half-life. Item: "Nc1nccn2c1c(-c1ccc3ccc(-c4ccccc4)nc3c1)nc2[C@H]1C[C@@H](CN2CCC2)C1" 5.1

----------
# target: Insulin-like growth factor 1 receptor (Homo sapiens, UniProt P08069)
# Sequence (P08069 31-736 limits assumed): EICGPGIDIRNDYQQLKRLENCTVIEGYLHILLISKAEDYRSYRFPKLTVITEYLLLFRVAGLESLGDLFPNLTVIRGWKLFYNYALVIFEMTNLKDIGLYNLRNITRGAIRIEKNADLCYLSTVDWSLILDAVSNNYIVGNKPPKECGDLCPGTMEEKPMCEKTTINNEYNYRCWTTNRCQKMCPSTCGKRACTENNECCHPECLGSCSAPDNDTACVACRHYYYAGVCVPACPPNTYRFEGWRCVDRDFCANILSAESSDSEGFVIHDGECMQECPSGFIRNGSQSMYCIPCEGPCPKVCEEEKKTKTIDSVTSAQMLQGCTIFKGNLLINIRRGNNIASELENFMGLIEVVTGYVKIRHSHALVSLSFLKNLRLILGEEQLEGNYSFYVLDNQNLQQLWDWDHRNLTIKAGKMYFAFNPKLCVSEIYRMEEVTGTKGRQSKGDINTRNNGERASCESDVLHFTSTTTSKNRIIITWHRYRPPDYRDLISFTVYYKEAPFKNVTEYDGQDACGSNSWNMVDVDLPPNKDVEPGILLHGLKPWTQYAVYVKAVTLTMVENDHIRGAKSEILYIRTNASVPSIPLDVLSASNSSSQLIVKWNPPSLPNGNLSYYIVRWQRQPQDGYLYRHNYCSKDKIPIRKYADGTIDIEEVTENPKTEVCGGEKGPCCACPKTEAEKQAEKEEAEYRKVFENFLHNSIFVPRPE
# Sequence (P08069 741-1367 limits assumed): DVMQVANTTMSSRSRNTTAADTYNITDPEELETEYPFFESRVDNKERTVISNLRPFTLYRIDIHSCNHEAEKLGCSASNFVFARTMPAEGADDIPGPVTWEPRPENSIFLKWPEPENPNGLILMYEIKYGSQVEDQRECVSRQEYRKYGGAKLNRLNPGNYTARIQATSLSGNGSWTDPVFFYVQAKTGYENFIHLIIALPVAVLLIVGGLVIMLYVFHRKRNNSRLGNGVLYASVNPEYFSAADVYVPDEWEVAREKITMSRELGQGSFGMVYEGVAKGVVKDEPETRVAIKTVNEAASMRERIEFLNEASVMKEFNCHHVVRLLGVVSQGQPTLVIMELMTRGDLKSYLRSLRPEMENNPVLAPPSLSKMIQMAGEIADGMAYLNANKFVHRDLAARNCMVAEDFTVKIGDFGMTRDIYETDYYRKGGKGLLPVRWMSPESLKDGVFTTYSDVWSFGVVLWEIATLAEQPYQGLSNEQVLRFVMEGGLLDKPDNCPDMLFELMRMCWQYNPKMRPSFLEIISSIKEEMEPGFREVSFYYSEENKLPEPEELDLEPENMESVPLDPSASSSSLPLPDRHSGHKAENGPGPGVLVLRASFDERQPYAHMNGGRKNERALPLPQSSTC
# assay_text: Inhibition of human recombinant full length IGF1R
measured_metric: IC50 (µM)
One number for each entry, in µM.

Requested field: IC50. Item: "Nc1nccn2c1c(-c1ccc3ccc(-c4ccccc4)nc3c1)nc2[C@H]1C[C@@H](CN2CCC2)C1" 0.035
